Read-out: Alpha-fetoprotein (AFP) gene, AFP (gene 174)
Assay: LTEA_HepaRG_AFP: Life Technologies and Expression Analysis (LTEA) Assay for Alpha-fetoprotein (AFP) gene using HepaRG (AID 2283472);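 also: AFP transcript by TaqMan qRT-PCR normalized to ACTB GAPDH and POLR2A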
Conditions: mRNA level, 48 h; actives raise or lower the signal
Calls of active or inactive are those of the source. The calls were made as follows: active = hit-call score of the fitted dose curve at least 0.9, where 1 is the maximum; inactive = score below 0.9.
List of AC50 values.
METRIC: AC50

smiles_repr=CC#Cc1cc(C)nc(Nc2ccccc2)n1 metric=AC50 result_value="26.4 µM (active)"
smiles_repr=CCC(C)(CC)c1cc(NC(=O)c2c(OC)cccc2OC)on1 metric=AC50 result_value="28.9 µM (active)"
smiles_repr=ClC1=C(Cl)[C@]2(Cl)[C@@H]3[C@H]4C[C@H]([C@@H]5O[C@H]45)[C@@H]3[C@@]1(Cl)C2(Cl)Cl metric=AC50 result_value="31.1 µM (active)"
smiles_repr=O=C(O)C(F)(F)C(F)(F)C(F)(F)C(F)(F)C(F)(F)C(F)(F)C(F)(F)C(F)(F)F metric=AC50 result_value="78.4 µM (active)"

---

Read-out: Human Leukocyte Antigen - DR isotype (HLADR), HLA-DRA (gene 3122)
Assay: BSK_3C_HLADR: BioMAP Diversity Plus: 3C Assay for Human Leukocyte Antigen - DR isotype (HLADR) Biomarker Activity (AID 2283019)
Conditions: primary human endothelial cells (HUVEC); actives raise or lower the signal
Calls of active or inactive are those of the source. Rule for the calls: active = hit-call score of the fitted dose curve at least 0.9, where 1 is the maximum; inactive = score below 0.9.
Possible outcomes: yes (1) for active, no (0) for inactive

smiles_repr=CCCCCCCCCC[N+](C)(C)CCCCCCCCCC label_class="yes (1)"
smiles_repr=Cc1cc(-c2ccc(N)c(C)c2)ccc1N label_class="no (0)"
smiles_repr=CC(C)(c1ccccc1)c1ccc(O)cc1 label_class="yes (1)"
smiles_repr=CCCCCCCCOC(=O)c1ccccc1C(=O)OCCCCCCCC label_class="yes (1)"
smiles_repr=CN(C)CCO label_class="no (0)"
smiles_repr=CC#Cc1cc(C)nc(Nc2ccccc2)n1 label_class="no (0)"
smiles_repr=CCC(C)(CC)c1cc(NC(=O)c2c(OC)cccc2OC)on1 label_class="no (0)"
smiles_repr=Cc1ccccc1O label_class="no (0)"
smiles_repr=Clc1ccc(C(Cl)(Cl)Cl)cc1 label_class="no (0)"
smiles_repr=N#Cc1ccc(N(CC(N)=O)CC(F)(F)F)cc1C(F)(F)F label_class="no (0)"
smiles_repr=Cc1ccc(O)c(C)c1 label_class="yes (1)"
smiles_repr=COS(=O)(=O)OC label_class="no (0)"
smiles_repr=CCCCCCOC(=O)c1ccccc1C(=O)OCCCCCC label_class="no (0)"
smiles_repr=Nn1cnnc1 label_class="no (0)"
smiles_repr=CN(C)c1nc(=O)n(C2CCCCC2)c(=O)n1C label_class="no (0)"

---

Read-out: CD69, CD69 (gene 969)
Assay: BSK_SAg_CD69: BioMAP Diversity Plus: SAg Assay for CD69 Biomarker Activity (AID 2283089)
Conditions: primary human HUVEC with PBMC; actives raise or lower the signal
Calls of active or inactive are those of the source. Rule for the calls: active = hit-call score of the fitted dose curve at least 0.9, where 1 is the maximum; inactive = score below 0.9.
Possible outcomes: true (1) = active, false (0) = inactive

molecule=CCCCCCCCOC(=O)c1ccccc1C(=O)OCCCCCCCC label_class="false (0)"
molecule=CCSC(=O)N(CC)C1CCCCC1 label_class="false (0)"
molecule="CCC(C)c1cc([N+](=O)[O-])cc([N+](=O)[O-])c1O (configuration not stated)" label_class="true (1)"
molecule="CC(C)C(=O)OCC(C)(C)C(OC(=O)C(C)C)C(C)C (configuration not stated)" label_class="false (0)"
molecule=Cc1cccc(C)c1N label_class="false (0)"
molecule=CC#Cc1cc(C)nc(Nc2ccccc2)n1 label_class="false (0)"
molecule=CCCN(CCC)N=O label_class="false (0)"
molecule=C[C@]12CCC(=O)C=C1CC[C@@H]1[C@@H]2CC[C@@]2(C)[C@H]1CC[C@]2(C)O label_class="false (0)"
molecule=CO/C=C(/C(=O)OC)c1ccccc1COc1cccc(C(F)(F)F)n1 label_class="true (1)"
molecule=Oc1ccc(C(c2ccc(O)cc2)(C(F)(F)F)C(F)(F)F)cc1 label_class="true (1)"
molecule=O=C(N[C@H]1CN2CCC1CC2)c1cc2ccoc2cn1 label_class="false (0)"
molecule=ClC1=C(Cl)[C@]2(Cl)[C@@H]3[C@@H]4C[C@@H]([C@H]5O[C@@H]45)[C@@H]3[C@@]1(Cl)C2(Cl)Cl label_class="false (0)"

---

Target: Peroxisome proliferator-activated receptor gamma (Homo sapiens)
Experiment: OT_PPARg_PPARgSRC1_1440: Odyssey Thera (OT) 24-hour Protein-Complementation Assay for Peroxisome Proliferator-activated Receptor Gamma/ SRC-1 Co-activator (AID 2283388);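 also: nuclear to cytoplasmic ratio of reconstituted Venus YFP fluorescence in fixed imaged cells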
The source made the active and inactive calls. Rule for the calls: active = hit-call score of the fitted dose curve at least 0.9, where 1 is the maximum; inconclusive = response in the unintended direction; inactive = score below 0.9.
METRIC: outcome

compound=ClC1=C(Cl)[C@]2(Cl)[C@@H]3[C@@H]4C[C@@H]([C@H]5O[C@@H]45)[C@@H]3[C@@]1(Cl)C2(Cl)Cl result_value=inactive
compound=O=C(O)C(F)(F)C(F)(F)C(F)(F)C(F)(F)C(F)(F)C(F)(F)C(F)(F)C(F)(F)C(F)(F)F result_value=inactive
compound=O=C(O)C(F)(F)C(F)(F)C(F)(F)C(F)(F)C(F)(F)C(F)(F)C(F)(F)C(F)(F)F result_value=inactive
compound=CC(C)(c1ccccc1)c1ccc(O)cc1 result_value=inactive
compound=Cc1ccccc1CO[C@@H]1C[C@@]2(C(C)C)CC[C@]1(C)O2 result_value=inactive
compound=O=NN(c1ccccc1)c1ccccc1 result_value=inactive
compound=COS(=O)(=O)OC result_value=inactive
compound="C1CC2OC2CC1C1CO1 (stereo not given)" result_value=inactive
compound=Cc1cccc(C)c1N result_value=inactive
compound=CCCCCCOC(=O)c1ccccc1C(=O)OCCCCCC result_value=inactive
compound=C=CC(=O)NCNC(=O)C=C result_value=inactive
compound=Cc1cc(O)ccc1Cl result_value=inactive
compound=NS(=O)(=O)C(F)(F)C(F)(F)C(F)(F)C(F)(F)C(F)(F)C(F)(F)C(F)(F)C(F)(F)F result_value=inactive
compound=C[C@]12CCC(=O)C=C1CC[C@@H]1[C@@H]2CC[C@]2(C)C(=O)CC[C@@H]12 result_value=inactive
compound=Oc1ccc(C(c2ccc(O)cc2)(C(F)(F)F)C(F)(F)F)cc1 result_value=inactive
compound=Cc1ccccc1O result_value=inactive
compound=CN(C)c1nc(=O)n(C2CCCCC2)c(=O)n1C result_value=inactive
compound=ClC(Cl)=C(c1ccc(Cl)cc1)c1ccc(Cl)cc1 result_value=inactive
compound=CCOCCOC(C)=O result_value=inactive
compound=CCCCCCCCOC(=O)c1ccccc1C(=O)OCCCCCCCC result_value=inactive
compound="CC(C)C(=O)OCC(C)(C)C(OC(=O)C(C)C)C(C)C (stereo not given)" result_value=inactive
compound=CO/C=C(/C(=O)OC)c1ccccc1COc1cccc(C(F)(F)F)n1 result_value=inactive
compound=CCSC(=O)N(CC)C1CCCCC1 result_value=inactive
compound=O=S(=O)(O)C(F)(F)C(F)(F)C(F)(F)C(F)(F)F result_value=inactive
compound=N#Cc1ccc(N(CC(N)=O)CC(F)(F)F)cc1C(F)(F)F result_value=inactive

---

Molecular target: PGR (gene 5241) (UniProt P06401)
Sequence (P06401 whole entry, looked up): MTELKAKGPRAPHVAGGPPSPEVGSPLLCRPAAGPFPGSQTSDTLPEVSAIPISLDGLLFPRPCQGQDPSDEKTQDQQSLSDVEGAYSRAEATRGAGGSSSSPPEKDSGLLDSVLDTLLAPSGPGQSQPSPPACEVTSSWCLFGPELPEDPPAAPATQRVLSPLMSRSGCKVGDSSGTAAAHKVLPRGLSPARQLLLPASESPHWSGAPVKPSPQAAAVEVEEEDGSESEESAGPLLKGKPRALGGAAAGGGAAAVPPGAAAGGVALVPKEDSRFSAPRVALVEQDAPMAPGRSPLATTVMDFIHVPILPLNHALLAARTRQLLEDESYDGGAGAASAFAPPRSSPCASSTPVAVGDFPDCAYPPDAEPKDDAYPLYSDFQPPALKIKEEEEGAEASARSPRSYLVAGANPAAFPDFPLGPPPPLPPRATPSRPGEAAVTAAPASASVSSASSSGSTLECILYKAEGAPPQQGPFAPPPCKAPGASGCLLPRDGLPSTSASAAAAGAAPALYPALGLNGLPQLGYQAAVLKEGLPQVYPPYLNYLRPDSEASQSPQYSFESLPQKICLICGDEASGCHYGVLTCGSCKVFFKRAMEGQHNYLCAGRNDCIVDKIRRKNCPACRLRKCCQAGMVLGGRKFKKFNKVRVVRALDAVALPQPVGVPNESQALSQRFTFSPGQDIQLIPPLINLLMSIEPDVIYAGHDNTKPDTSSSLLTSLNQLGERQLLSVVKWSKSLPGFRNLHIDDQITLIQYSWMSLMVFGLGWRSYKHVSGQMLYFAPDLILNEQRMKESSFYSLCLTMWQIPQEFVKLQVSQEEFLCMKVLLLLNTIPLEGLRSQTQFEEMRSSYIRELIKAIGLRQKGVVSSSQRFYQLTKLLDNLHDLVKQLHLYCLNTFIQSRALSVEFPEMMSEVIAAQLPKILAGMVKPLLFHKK
Experiment: TOX21_PR_LUC_Followup_Antagonist: Tox21 HEK293 Progesterone Receptor (PR) Antagonism Luciferase Follow-Up Assay (AID 2283938);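 also: curve fitted upward as signal gain over DMSO baseline despite antagonist label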
Records with an inconclusive call do not appear. The source made the active and inactive calls. How the source made its calls: active means hit-call score of the fitted dose curve at least 0.9, where 1 is the maximum; inconclusive means response in the unintended direction; inactive means score below 0.9.
Outcomes: active, inactive

compound=ClC(Cl)=C(c1ccc(Cl)cc1)c1ccc(Cl)cc1 assay_system="PGR (gene 5241) (UniProt P06401)" label_class=active
compound=ClC1=C(Cl)[C@]2(Cl)[C@@H]3[C@@H]4C[C@@H]([C@H]5O[C@@H]45)[C@@H]3[C@@]1(Cl)C2(Cl)Cl assay_system="PGR (gene 5241) (UniProt P06401)" label_class=active
compound=CCCCCCCCCc1ccc(O)cc1 assay_system="PGR (gene 5241) (UniProt P06401)" label_class=inactive
compound="Clc1ccc(C(c2ccccc2Cl)C(Cl)(Cl)Cl)cc1 (centres undefined)" assay_system="PGR (gene 5241) (UniProt P06401)" label_class=active

---

Read-out: Cytochrome P450 2C19 (Homo sapiens) (UniProt P33261)
Sequence (P33261 whole entry, looked up): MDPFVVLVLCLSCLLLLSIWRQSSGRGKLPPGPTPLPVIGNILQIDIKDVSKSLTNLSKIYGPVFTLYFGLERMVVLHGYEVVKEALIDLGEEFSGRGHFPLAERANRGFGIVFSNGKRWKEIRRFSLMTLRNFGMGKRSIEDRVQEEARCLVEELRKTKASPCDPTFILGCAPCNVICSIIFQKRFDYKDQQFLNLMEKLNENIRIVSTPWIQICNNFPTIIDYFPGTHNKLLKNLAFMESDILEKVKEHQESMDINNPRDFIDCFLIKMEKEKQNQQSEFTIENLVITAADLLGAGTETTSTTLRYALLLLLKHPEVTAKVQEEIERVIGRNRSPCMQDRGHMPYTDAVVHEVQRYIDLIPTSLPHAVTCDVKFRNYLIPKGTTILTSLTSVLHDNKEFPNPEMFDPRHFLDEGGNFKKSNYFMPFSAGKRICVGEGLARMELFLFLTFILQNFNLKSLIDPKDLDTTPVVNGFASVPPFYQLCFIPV
Assay: LTEA_HepaRG_CYP2C19: Life Technologies and Expression Analysis (LTEA) Assay for CYP2C19 using HepaRG (AID 2283482)
Conditions: mRNA level, 48 h; actives raise or lower the signal
The source made the active and inactive calls. The calls were made as follows: active = hit-call score of the fitted dose curve at least 0.9, where 1 is the maximum; inactive = score below 0.9.
Possible outcomes: active, inactive

molecule=ClC1=C(Cl)[C@]2(Cl)[C@@H]3[C@H]4C[C@H]([C@@H]5O[C@H]45)[C@@H]3[C@@]1(Cl)C2(Cl)Cl label_class=active
molecule=O=C(N[C@H]1CN2CCC1CC2)c1cc2ccoc2cn1 label_class=inactive
molecule="C1CC2OC2CC1C1CO1 (configuration not stated)" label_class=inactive
molecule=CN(C)c1nc(=O)n(C2CCCCC2)c(=O)n1C label_class=inactive
molecule=Oc1ccc(C(c2ccc(O)cc2)(C(F)(F)F)C(F)(F)F)cc1 label_class=active
molecule=c1cc2ccc3cccc4ccc(c1)c2c34 label_class=active
molecule=Cc1ccc(O)c(C)c1 label_class=inactive
molecule=CC1=C2C[C@H]3[C@@H](CC=C4C[C@@H](O)CC[C@@]43C)[C@@H]2CC[C@]12O[C@@H]1C[C@H](C)CN[C@H]1[C@H]2C label_class=inactive
molecule=CCCN(CCC)N=O label_class=inactive
molecule=ClC(Cl)=C(c1ccc(Cl)cc1)c1ccc(Cl)cc1 label_class=active
molecule=CN(C)CCO label_class=inactive
molecule=Cc1cc2c3c(c1)C(c1ccccc1)=N[C@@H](NC(=O)c1ccncc1)C(=O)N3CC2 label_class=active
molecule=Cc1cccc([N+](=O)[O-])c1 label_class=inactive
molecule=CCCCCCOC(=O)c1ccccc1C(=O)OCCCCCC label_class=inactive
molecule=CCC(=O)O[C@H]1CC[C@H]2[C@@H]3CCC4=CC(=O)CC[C@]4(C)[C@H]3CC[C@]12C label_class=active
molecule=CO/C=C(/C(=O)OC)c1ccccc1COc1cccc(C(F)(F)F)n1 label_class=active
molecule=O=C(O)C(F)(F)C(F)(F)C(F)(F)C(F)(F)C(F)(F)F label_class=active
molecule=Nn1cnnc1 label_class=inactive
molecule=Cc1cc(O)ccc1Cl label_class=inactive
molecule=COS(=O)(=O)OC label_class=inactive
molecule=CCOC(=O)C(O)(c1ccc(Cl)cc1)c1ccc(Cl)cc1 label_class=inactive
molecule=CC#Cc1cc(C)nc(Nc2ccccc2)n1 label_class=active
